Entries below carry reported IC50 on Human eIF4E (Homo sapiens (Human), UniProt P06730).
Sequence (P06730 28-217): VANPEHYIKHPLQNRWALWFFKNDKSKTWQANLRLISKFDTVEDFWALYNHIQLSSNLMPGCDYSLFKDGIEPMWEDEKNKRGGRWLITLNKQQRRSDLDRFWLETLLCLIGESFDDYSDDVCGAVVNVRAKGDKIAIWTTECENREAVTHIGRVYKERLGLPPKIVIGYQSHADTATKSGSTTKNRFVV
The reply should contain only the number, in µM.

Known results for compounds:
- COMPOUND: "O=C(O)c1cc(-c2nc(-c3ccc(Cl)c(Cl)c3)cs2)ccc1-c1ccccc1F [Example 137]"
  UNITS SYMBOL: "µM"
  VALUE OBSERVED: 3.6
- COMPOUND: "N#Cc1ccc(-c2ccc(-c3nc(-c4ccc(Cl)c(Cl)c4)cs3)cc2C(=O)O)cc1Cl [Example 114]"
  UNITS SYMBOL: "µM"
  VALUE OBSERVED: 1.7

Now examine the next entry.
Write down measured IC50 (Human eIF4E (Homo sapiens (Human), UniProt P06730)) for this compound. O=C(O)c1cc(-c2nc(-c3ccc(Cl)c(Cl)c3)cs2)ccc1-c1ccc(C(=O)N2CCCC2)cc1 [Example 57]
4.3
